- protocol_summary: in vitro
- Type: cell-based
- particulars: human
Structures can show the parent of a compound that is named as a salt.
Recorded measurements of viability at 24 h, 10 μM, one per entry
measured_quantity: viability at 24 h, 10 μM

[[record]]
molecule = "C[C@]12C=CC(=O)C=C1CC[C@@H]1[C@@H]2[C@@H](O)C[C@@]2(C)[C@H]1CC[C@]2(O)C(=O)CO"
result = "101%"

[[record]]
molecule = "CC/C(=C(\\c1ccc(O)cc1)c1ccc(OCCN(C)C)cc1)c1ccccc1 [4-hydroxytamoxifen]"
result = "9.2%"

[[record]]
molecule = "C[C@H]1C[C@H]2[C@@H]3CCC4=CC(=O)C=C[C@]4(C)[C@@]3(F)[C@@H](O)C[C@]2(C)[C@@]1(O)C(=O)CO"
result = "101%"

[[record]]
molecule = "CC/C(=C(\\c1ccccc1)c1ccc(OCCN(C)C)cc1)c1ccccc1 [Tamoxifen citrate, tamoxifen citrate salt]"
result = "1.7%"

[[record]]
molecule = "C[C@]12C=CC(=O)C=C1CC[C@H]1[C@@H]3C[C@@H](O)[C@](O)(C(=O)CO)[C@@]3(C)C[C@H](O)[C@@]12F"
result = "101%"

[[record]]
molecule = "CC/C(=C(/CC)c1ccc(O)cc1)c1ccc(O)cc1"
result = "99.9%"

